tgt: HLA-B1501 (Homo sapiens, UniProt P01889, A329T/A93T/A95T/C349S/D201E/D98Y/E187L/E204Q/E69M/E70A/K202T/N87E/Q94N/R155S/R180W/S121R/S35A/S48A/V306I/V36M/Y140S/Y91S)
test-description: Competitive peptide binding assay, CIR-B1501
condition-summary: HMy2.CIR-B1501 cells, reference Cy5-[…], class from inhibition at 5 and 15 μM, flow cytometry MFI; read-out: Binding affinity with HLA-B1501
Protocol: Then, competitive peptide binding assays were performed.
pIC50: −log10 of the molar value. Peptide text beside a SMILES is read from it.

{"compound": "CC[C@H](C)[C@H](NC(=O)CNC(=O)[C@H](CC(=O)O)NC(=O)[C@H](CCCCN)NC(=O)[C@H](CC(N)=O)NC(=O)[C@H](C)NC(=O)CN)C(=O)N[C@H](C(=O)N[C@@H](Cc1c[nH]c2ccccc12)C(=O)O)[C@@H](C)CC [Epitope Y301] (H-GANKDGIIW-OH; N-terminus and C-terminus assumed)", "pIC50": "< 4.82"}

---

Measured IC50 of individual entries
tgt: HLA-C0102 (Homo sapiens, UniProt P10321, A176E/A330V/A35S/A97T/C350S/D114A/D33F/L171W/L180R/L218V/M285V/M309V/M331V/P208H/Q277E/Q291P/R121W/R243W/R30K/S123C/S140Y/S297R/T329A/T363A/V272M/V319A)
test-description: Competitive peptide binding assay, CIR-C0102
condition-summary: HMy2.CIR-C0102 cells, reference Cy5-[…], class from inhibition at 5 and 15 μM, flow cytometry MFI; read-out: Binding affinity with HLA-C0102
Peptide text beside a SMILES is read from it.
measure: IC50

{"compound": "CC[C@H](C)[C@H](NC(=O)[C@H](C)NC(=O)[C@H](CC(C)C)NC(=O)[C@@H](NC(=O)[C@@H](N)C(C)C)[C@@H](C)O)C(=O)N[C@@H](CC(C)C)C(=O)N[C@H](C(=O)N[C@@H](C)C(=O)N[C@@H](CC(C)C)C(=O)O)[C@@H](C)O [Epitope M3, VTLAILTAL] (H-VTLAILTAL-OH; N-terminus and C-terminus assumed)", "measure": "IC50", "result": "< 5 µM"}
{"compound": "CC(C)C[C@H](NC(=O)[C@H](C)NC(=O)[C@@H](NC(=O)[C@@H](N)CC(C)C)[C@@H](C)O)C(=O)N[C@@H](CCCNC(=N)N)C(=O)N[C@@H](CC(C)C)C(=O)N[C@@H](CS)C(=O)N[C@@H](C)C(=O)N[C@@H](Cc1ccc(O)cc1)C(=O)O [Epitope M51] (H-LTALRLCAY-OH; N-terminus and C-terminus assumed)", "measure": "IC50", "result": "5 to 15 µM"}

---

Measured pIC50 of individual entries
tgt: HLA-C0102 (Homo sapiens, UniProt P10321, A176E/A330V/A35S/A97T/C350S/D114A/D33F/L171W/L180R/L218V/M285V/M309V/M331V/P208H/Q277E/Q291P/R121W/R243W/R30K/S123C/S140Y/S297R/T329A/T363A/V272M/V319A)
test-description: Competitive peptide binding assay, CIR-C0102
condition-summary: HMy2.CIR-C0102 cells, reference Cy5-[…], class from inhibition at 5 and 15 μM, flow cytometry MFI; read-out: Binding affinity with HLA-C0102
pIC50: −log10 of the molar value. Peptide text beside a SMILES is read from it.

{"molecule": "CC(C)C[C@H](NC(=O)[C@H](Cc1ccccc1)NC(=O)[C@@H](NC(=O)[C@@H](N)C(C)C)C(C)C)C(=O)N[C@@H](Cc1c[nH]cn1)C(=O)N[C@H](C(=O)N[C@H](C(=O)N[C@@H](Cc1ccc(O)cc1)C(=O)N[C@H](C(=O)O)C(C)C)[C@@H](C)O)C(C)C [Epitope M131] (H-VVFLHVTYV-OH; N-terminus and C-terminus assumed)", "pIC50": "4.82 to 5.30"}
{"molecule": "CC[C@H](C)[C@H](NC(=O)[C@@H](NC(=O)CNC(=O)[C@H](CC(N)=O)NC(=O)[C@H](CO)NC(=O)[C@H](CC(=O)O)NC(=O)[C@H](C)NC(=O)[C@@H](N)CCSC)[C@@H](C)O)C(=O)N[C@H](C(=O)N[C@H](C(=O)O)C(C)C)[C@@H](C)O [Epitope M48] (H-MADSNGTITV-OH; N-terminus and C-terminus assumed)", "pIC50": "< 4.82"}
{"molecule": "C[C@@H](O)[C@H](NC(=O)[C@H](CCC(N)=O)NC(=O)[C@H](CC(=O)O)NC(=O)[C@H](Cc1c[nH]c2ccccc12)NC(=O)[C@H](Cc1ccc(O)cc1)NC(=O)[C@H](CCCCN)NC(=O)[C@H](Cc1ccccc1)NC(=O)[C@@H](N)Cc1ccc(O)cc1)C(=O)N[C@@H](Cc1ccc(O)cc1)C(=O)O [Epitope M122] (H-YFKYWDQTY-OH; N-terminus and C-terminus assumed)", "pIC50": "< 4.82"}
